assay: PAMPA, compounds measured in multiplex as mixtures (primary protocol); conditions: PAMPA, pH 7.4, PAMPA Papp, internal standard, 10 µM, StereoB expt. group BDL
observable: Papp at 10 µM (×10⁻⁶ cm/s)
Numeric only. Scale: ×10⁻⁶ cm/s

So what's the measured Papp at 10 µM for this one? NC(=O)N1c2ccccc2C=Cc2ccccc21 [Carbamazepine] 5.8

---

experiment: in vitro; details: dog, MDCK, pH 7.4
Positions of bridges follow the written chain, without caps; N, C: chain ends. Non-standard residues stand in square brackets, D forms with d. Residues, ends and D or L forms follow the SMILES beside them. NMeC = CN[C@@H](CS)C(=O)O; NMeA = CN[C@@H](C)C(=O)O; dAbu = CC[C@@H](N)C(=O)O; dNMeA = CN[C@H](C)C(=O)O; Abu = CC[C@H](N)C(=O)O; Nleu = CC(C)CNCC(=O)O; NEtG = CCNCC(=O)O
Record form. Attribute: Papp at 3 h, 10 µM. Fill in for each entry.
Provide a numeric answer, followed by its unit.

So what's the measured Papp at 3 h, 10 µM for this one? CCOC(=O)[C@@H]1CSCC(=O)N[C@@H](CC(C)C)C(=O)N(C)[C@@H](C)C(=O)N[C@@H](CC(C)C)C(=O)N2CCC[C@@H]2C(=O)N(CC)CC(=O)N[C@@H](CC)C(=O)N(C)[C@@H](C)C(=O)N[C@@H](CC(C)C)C(=O)N1C [LA02] ({CH2CO}-L[NMeA]L[dP][NEtG][Abu][NMeA]L[NMeC]-OEt; thioether N-9) 4.5 ×10⁻⁶ cm/s

So what's the measured Papp at 3 h, 10 µM for this one? CCOC(=O)[C@@H]1CSCC(=O)N[C@H](CC)C(=O)N(CC(C)C)CC(=O)N[C@H](CC(C)C)C(=O)N(C)[C@H](C)C(=O)N(C)[C@@H](C)C(=O)N[C@H](CC(C)C)C(=O)N(C)[C@H](C)C(=O)N[C@@H](CC(C)C)C(=O)N1C [B1-3D] ({CH2CO}-[dAbu][Nleu][dL][dNMeA][NMeA][dL][dNMeA]L[NMeC]-OEt; thioether N-9) 0.5 ×10⁻⁶ cm/s

So what's the measured Papp at 3 h, 10 µM for this one? CCOC(=O)[C@@H]1CSCC(=O)N[C@H](CC)C(=O)N(CC(C)C)CC(=O)N[C@@H](CC(C)C)C(=O)N(C)[C@H](C)C(=O)N(C)[C@@H](C)C(=O)N[C@H](CC(C)C)C(=O)N(C)[C@H](C)C(=O)N[C@@H](CC(C)C)C(=O)N1C [B1] ({CH2CO}-[dAbu][Nleu]L[dNMeA][NMeA][dL][dNMeA]L[NMeC]-OEt; thioether N-9) 1.3 ×10⁻⁶ cm/s

---

assay: in vitro; settings: PAMPA, pH 7.4, Pe_avg
Positions of bridges follow the written chain, without caps; N, C: chain ends. Non-standard residues stand in square brackets, D forms with d. Residues, ends and D or L forms follow the SMILES beside them. Cha = N[C@@H](CC1CCCCC1)C(=O)O; NMeC = CN[C@@H](CS)C(=O)O; NMeA = CN[C@@H](C)C(=O)O; Nva = CCC[C@H](N)C(=O)O; NPrGly = CCCNCC(=O)O; NEtG = CCNCC(=O)O
Record form. Attribute: Papp at 10 µM. Fill in for each entry.
Numeric only. Scale: ×10⁻⁶ cm/s

So what's the measured Papp at 10 µM for this one? CCC[C@@H]1NC(=O)CN(CC)C(=O)[C@H](CC(C)C)NC(=O)CSC[C@@H](C(=O)OCC)N(C)C(=O)[C@H](CC(C)C)NC(=O)[C@H](C)N(C)C(=O)[C@H](CC(C)C)NC(=O)[C@H](C)N(C)C(=O)[C@H]2CCCN2C1=O [LB05] ({CH2CO}-L[NEtG][Nva][dP][NMeA]L[NMeA]L[NMeC]-OEt; thioether N-9) 2.57

So what's the measured Papp at 10 µM for this one? CCCN1CC(=O)N[C@@H](CC(C)C)C(=O)N2CCC[C@@H]2C(=O)N(C)[C@@H](C)C(=O)N[C@@H](CC(C)C)C(=O)N(C)[C@@H](C)C(=O)N[C@@H](CC(C)C)C(=O)N(C)[C@H](C(=O)OCC)CSCC(=O)N[C@@H](CC(C)C)C1=O [LB08] ({CH2CO}-L[NPrGly]L[dP][NMeA]L[NMeA]L[NMeC]-OEt; thioether N-9) 2.29

So what's the measured Papp at 10 µM for this one? CCC[C@@H]1NC(=O)CN(CCC)C(=O)[C@H](CC(C)C)NC(=O)CSC[C@@H](C(=O)OCC)N(C)C(=O)[C@H](CC(C)C)NC(=O)[C@H](C)N(C)C(=O)[C@H](CC2CCCCC2)NC(=O)[C@H](C)N(C)C(=O)[C@H]2CCCN2C1=O [LB11] ({CH2CO}-L[NPrGly][Nva][dP][NMeA][Cha][NMeA]L[NMeC]-OEt; thioether N-9) 0.619
